Test system: OVCAR-3 ovarian
METHOD_SUMMARY: NCI tumour cell line growth inhibition, 48 h
ENDPOINT: TGI

> print(dat)
                                   compound  endpoint.result
1                            OCc1nnn2c1CCC2         > 100 µM
2  C=CN1CCN(c2ccccc2)P1(=O)Oc1ccccc1 (centres undefined)         > 100 µM
3  Cc1c(C(=O)OCc2ccccc2)[n+](=O)c2ccccc2n1[O-]         > 100 µM
4   CCCCCCCCc1cc[n+](CC(=O)c2ccc(Br)cc2)cc1          2.75 µM

----------
Test system: SK-MEL-5 melanoma
METHOD_SUMMARY: NCI tumour cell line growth inhibition, 48 h
TGI by entry:
ENDPOINT: TGI (µM)

> print(dat)
                                    molecule  qualifying.sign  endpoint.result
 1  COc1ccc2c(c1)C(=O)c1c-2n(CCCCl)c(=O)c2cc(OC)c(OC)cc12                =             30.1
 2  O=C(N=Nc1c(O)[nH]c2c(Cl)cc(Cl)cc12)c1ccccc1O                =             28.7
 3  CC(C)C(=O)OCC1CCCN2CCCCC12 (stereo not given)                >              100
 4  O=C(NCCCCNC(=O)OCc1ccc2c(Cl)cc(Cl)c(O)c2n1)OCc1ccc2c(Cl)cc(Cl)c(O)c2n1                =             3.95
 5  COc1cc(C2=NNC(c3ccc(N(C)C)cc3)C2)cc(OC)c1OC (stereo not given)                =             7.15
 6  Cc1c(C(=O)OCc2ccccc2)[n+](=O)c2ccccc2n1[O-]                =             53.6
 7  O=c1c2ccccc2nc2n1CCc1c-2[nH]c2ccc(Br)cc12                >              100
 8  COC(=O)C(C(=O)C(=O)Nc1nc2ccc([N+](=O)[O-])cc2s1)c1nc2ccc(Cl)cc2[nH]c1=O (stereo not given)                >              100
 9   COc1cc2cc3c4c(cc(OC)c(OC)c4c2cc1OC)CCN3                >              100
10              CCCCNc1nc2nc[nH]c2c(=O)[nH]1                >              100

----------
Tested on: SW-620 colon
METHOD_SUMMARY: NCI tumour cell line growth inhibition, 48 h
Item-by-item account of TGI
ENDPOINT: TGI

> print(dat)
                                    molecule  endpoint  endpoint.result
 1            CCN(Cc1ccncc1)c1ccc(CO)c(Cl)c1       TGI         > 100 µM
 2              CCCCNc1nc2nc[nH]c2c(=O)[nH]1       TGI         > 100 µM
 3  CCCC[C@@H](C)/C=C1\CN2CCC[C@H]2[C@@](C)(O)[C@@H]1O       TGI         > 100 µM
 4  CCC(Cc1cnc2nc(N)nc(N)c2n1)c1ccc(C(=O)NC(CCC(=O)O)C(=O)O)cc1 (configuration not stated)       TGI         > 100 µM
 5                 ClCCC[Si]12OCCN(CCO1)CCO2       TGI         > 100 µM
 6      COc1cc(C=O)cc(/C=N/N=C/c2ccccc2O)c1O       TGI         > 100 µM
 7               COc1cc(/C=N\O)cc(/C=N/O)c1O       TGI         > 100 µM
 8  CCCCc1ccc(-n2c(C)c(COC(=O)NC)c(COC(=O)NC)c2C)cc1       TGI          21.4 µM
 9  CC1=CN(c2ccccc2)S2=C1c1sc3c(c1N2c1ccc(Br)cc1)CCCC3 (configuration not stated)       TGI         > 100 µM
10  c1ccc(-c2c(-c3ccccc3)[n+](Cc3ccc4ccccc4c3)c(-c3cccc4ccccc34)n2Cc2ccc3ccccc3c2)cc1       TGI          1.33 µM
11  CCCC(c1nnnn1C1CCCCC1)N1CCN(C(=O)c2ccco2)CC1 (configuration not stated)       TGI         > 100 µM
12  COCN1C(=O)C2CC(/C=C/C(N)=O)=CN2C(=O)c2ccccc21 (configuration not stated)       TGI         > 100 µM
13  O=S1CCN(Cc2ccc(-c3ccc4ncnc(Nc5ccc(OCc6cccc(F)c6)c(Cl)c5)c4c3)o2)CC1       TGI          > 25 µM
14  O=C1C=CC(=O)c2c(O)c(NCCCN3CCOCC3)c(Cl)c(O)c21       TGI          4.22 µM
15  CCCCNCC(O)c1cc2c(Cl)cc(Cl)cc2c2cc(C(F)(F)F)ccc12 (configuration not stated)       TGI          3.22 µM
16             O=c1[nH]cnc2c(COCCCO)c[nH]c12       TGI         > 100 µM
17                           CC(C)(/C=N\O)NO       TGI          > 10 µM
18  CC(=O)OCC1OC(n2c(-c3ccc(C)cc3)cc(-c3ccco3)c(C#N)c2=S)C(OC(C)=O)C(OC(C)=O)C1OC(C)=O (configuration not stated)       TGI         > 100 µM
19  COc1ccccc1N1C(=O)/C(=C\c2cc(OC)c(OC)c(OC)c2)SC1c1ccccc1 (configuration not stated)       TGI         > 100 µM
20  NS(=O)(=O)N(c1cc(C(F)(F)F)cc(C(F)(F)F)c1)C1CCN(Cc2ccc(F)cc2)CC1       TGI          30.7 µM
21                  Cc1cc(NN)nc2n[nH]c(N)c12       TGI         > 100 µM
22  CC(=O)OC1COC(N2CCc3ccccc32)C(OC(C)=O)C1OC(C)=O (configuration not stated)       TGI         > 100 µM

----------
System: UACC-62 melanoma
METHOD_SUMMARY: NCI tumour cell line growth inhibition, 48 h
ENDPOINT: TGI

> print(dat)
                                    molecule  endpoint.result
 1  O=C(O)CC(O)(c1ccccc1C(=O)O)c1cccc2ccccc12 (stereo not drawn)         > 100 µM
 2       CCOc1nc(OCC)nc(-c2cccn2-c2ccccc2)n1         > 100 µM
 3  C[n+]1c(-c2ccccc2)cc2/c(=C\c3ccccc3)c3ccccc3n21          3.24 µM
 4            CCN(Cc1ccncc1)c1ccc(CO)c(Cl)c1          2.17 µM
 5  COC1CC2C3/C(=N/Nc4ccc([N+](=O)[O-])cc4[N+](=O)[O-])CCC2(C)C3C1 (stereo not drawn)          > 10 µM
 6  O=C(c1c2c(cc3c1CC1(Cc4cc5c(cc4C1)CCCC5)C3)CCCC2)C(Br)Br          34.3 µM
 7                      COc1cc(C(=O)NO)ccc1O         > 100 µM
 8  Cc1nc2cc([N+](=O)[O-])ccc2c(NCCCN(C)C)c1C          33.9 µM
 9  CC1CSC(=S)N1C(=O)N1C(=S)SCC1C (stereo not drawn)          27.4 µM
10  CC(=O)OC1COC(N2CCc3ccccc32)C(OC(C)=O)C1OC(C)=O (stereo not drawn)         > 100 µM
11        N#CCCOc1cccc(C2(N3CCCCC3)CCCCC2)c1         > 100 µM
12  CCN(CC)CCC(=O)NC1c2ccccc2Oc2c(C)cccc21 (stereo not drawn)         > 100 µM
13                 ClCCC[Si]12OCCN(CCO1)CCO2         > 100 µM
14    c1ccc(-c2cc(-c3cccs3)c(-c3cccs3)s2)cc1         > 100 µM
15  Oc1ccc(-c2nn3c(CCCCCCCCc4nnc5sc(-c6ccc(O)cc6)nn45)nnc3s2)cc1         > 100 µM
16     Cc1ccc(Nc2nc3nc[nH]c3c(=O)[nH]2)cc1CO          25.9 µM
17  CCOC(=O)NC1C2CC(=O)C(O2)C1OCc1ccccc1 (stereo not drawn)         > 100 µM
18                        O=C(O)CN1CCNCCNCC1         > 100 µM
19  CN(C)CCNC(=O)c1ccc(Cl)c2ccc(-c3ccccc3)nc12          7.83 µM
20  CC(=O)c1sc2c(c1OC(=O)c1ccc(Cl)cc1)c(=O)n(-c1ccccc1)c(=S)n2-c1ccccc1          42.6 µM
21  CCCCc1ccc(-n2c(C)c(COC(=O)NC)c(COC(=O)NC)c2C)cc1          10.5 µM
22  Cc1ccccc1-n1c(=O)sc2c(=O)n(-c3ccccc3)c(=S)[nH]c21         > 100 µM
23  O=S1CCN(Cc2ccc(-c3ccc4ncnc(Nc5ccc(OCc6ccccc6)c(Cl)c5)c4c3)o2)CC1        > 23.4 µM
24  CC(C)CC(C(N)=O)C(=O)NC(Cc1ccccc1)NC(=O)CNC(=O)C(C)NC(=O)C(N)Cc1ccc(O)cc1 (stereo not drawn)         > 100 µM
25  O=C(N/S(=N/S(=O)(=O)c1ccc(Br)cc1)C(Cl)(Cl)Cl)c1ccccc1 (stereo not drawn)         > 100 µM
26    c1ccc(CSc2nc(N3CCCCC3)c3cn[nH]c3n2)cc1            32 µM
27  CC(=O)OCC1OC(n2c(-c3ccc(C)cc3)cc(-c3ccco3)c(C#N)c2=S)C(OC(C)=O)C(OC(C)=O)C1OC(C)=O (stereo not drawn)          45.2 µM
28                     CCCc1c(Cl)nc(Cl)nc1Cl         > 100 µM
29  NN/C(=N\S(=O)(=O)c1cc2ccccc2o1)Nc1ccc(Cl)cc1         > 100 µM
30  COc1cc(-c2n[nH]nc2-c2ccc3c(c2)OCCO3)cc(OC)c1OC          21.2 µM
31    COc1ccc2nc(NNC(=O)c3cnccn3)c3cccn3c2c1          2.48 µM
32  CCN1CCC(Oc2c(C#N)ncc3[nH]c4ncccc4c23)CC1          > 50 µM
33  COC(=O)C(CC(=O)c1ccccc1)c1ccccc1NC(C)=O (stereo not drawn)         > 100 µM
34  O=C(c1ccccc1)C(C(=O)c1ccccc1)c1nc2ccccc2sc1=O            24 µM
35  COC(=O)c1c(OC(C)=O)ccc2c1c1c(OC(C)=O)c3ccccc3c(OC(C)=O)c1n2C          49.4 µM
36          CC(=O)c1nc2ccccc2n1CCN1CCN(C)CC1         > 100 µM
37                   C[C@H]1COC(c2ccccn2)=N1         > 100 µM
38        COc1ccc(NCc2cc(OC)c(OC)c(OC)c2)cc1         > 100 µM

Hello, the source for this data is PubChem BioAssay (NCI), in case you need it.
